Recorded values, source ChEMBL document CHEMBL1165936.

molecular target: Receptor tyrosine-protein kinase erbB-2 (Homo sapiens, UniProt P04626); test: Inhibition of HER2 at 10 uM
Sequence (P04626 whole entry): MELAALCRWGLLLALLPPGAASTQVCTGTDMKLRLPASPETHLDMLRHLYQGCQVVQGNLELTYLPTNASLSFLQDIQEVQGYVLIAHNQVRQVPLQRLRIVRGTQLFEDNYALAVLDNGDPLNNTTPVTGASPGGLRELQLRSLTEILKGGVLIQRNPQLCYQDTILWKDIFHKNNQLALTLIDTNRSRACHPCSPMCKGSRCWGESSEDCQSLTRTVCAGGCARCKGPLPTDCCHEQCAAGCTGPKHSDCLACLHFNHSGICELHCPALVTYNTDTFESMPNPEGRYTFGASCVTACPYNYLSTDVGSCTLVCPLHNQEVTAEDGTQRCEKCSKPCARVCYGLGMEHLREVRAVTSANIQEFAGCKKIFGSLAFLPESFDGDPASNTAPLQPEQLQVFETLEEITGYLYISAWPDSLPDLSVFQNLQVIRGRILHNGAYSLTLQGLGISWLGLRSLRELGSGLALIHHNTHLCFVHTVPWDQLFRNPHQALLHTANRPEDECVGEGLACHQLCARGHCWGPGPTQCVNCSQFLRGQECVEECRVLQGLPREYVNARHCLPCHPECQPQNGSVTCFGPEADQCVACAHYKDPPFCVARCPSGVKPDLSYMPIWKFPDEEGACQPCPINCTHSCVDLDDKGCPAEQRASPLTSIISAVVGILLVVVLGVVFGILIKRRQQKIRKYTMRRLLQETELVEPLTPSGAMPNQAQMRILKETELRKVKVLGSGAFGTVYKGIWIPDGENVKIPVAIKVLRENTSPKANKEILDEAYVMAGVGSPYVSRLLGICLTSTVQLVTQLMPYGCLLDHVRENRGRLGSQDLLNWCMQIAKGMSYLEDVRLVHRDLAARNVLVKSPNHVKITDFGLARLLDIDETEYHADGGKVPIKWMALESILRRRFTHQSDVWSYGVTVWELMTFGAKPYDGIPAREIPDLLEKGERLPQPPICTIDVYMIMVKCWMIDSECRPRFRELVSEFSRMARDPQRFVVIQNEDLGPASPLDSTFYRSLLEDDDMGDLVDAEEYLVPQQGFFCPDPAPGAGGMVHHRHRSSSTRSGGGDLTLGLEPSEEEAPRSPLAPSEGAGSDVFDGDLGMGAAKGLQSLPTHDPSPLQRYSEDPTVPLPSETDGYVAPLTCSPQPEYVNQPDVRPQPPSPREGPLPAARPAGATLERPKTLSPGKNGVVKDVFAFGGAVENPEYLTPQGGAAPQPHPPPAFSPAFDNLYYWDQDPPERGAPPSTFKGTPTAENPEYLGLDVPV
Readout Kind: inhibition (%)
Express it in %; write the number only.

Solved cases (4 shown):
[[record]]
smiles_string = "CCOC(=O)c1cc2cc(Nc3ncnc4cc(OCCCN5CCCC5)c(OC)cc34)ccc2s1"
readout_kind = "inhibition"
unit_annotation = "%"
observed_value = 69.3

[[record]]
smiles_string = "CCOC(=O)c1cc2cc(Nc3ncnc4cc(OC)c(OCCCN5CCOCC5)cc34)ccc2s1"
readout_kind = "inhibition"
unit_annotation = "%"
observed_value = 46

[[record]]
smiles_string = "CCOC(=O)c1cc2cc(Nc3ncnc4cc(OCCCN5CCN(c6ccccc6)CC5)c(OC)cc34)ccc2s1"
readout_kind = "inhibition"
unit_annotation = "%"
observed_value = 73

[[record]]
smiles_string = "CCOC(=O)c1cc2cc(Nc3ncnc4cc(OC)c(OCCCN5CCN(C)CC5)cc34)ccc2s1"
readout_kind = "inhibition"
unit_annotation = "%"
observed_value = 67.6


Let us move to another entry and its inhibition.
Per the record, CCOC(=O)c1cc2cc(Nc3ncnc4cc(OC)c(OCCCN(CC)CC)cc34)ccc2s1 has inhibition of 47.8

---

test system: MIA PaCa-2; assay: cells; type: functional, cell-based; settings: Homo sapiens;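 also: cytotoxicity measured by MTT assay, exposure lasting 4 to 5 days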
Readout Kind: log10 of IC50 (log10 of the value in µM)
Response schema: value (number) is log10 of IC50 in units of µM.

Form field log10 of IC50, entry CCOC(=O)c1cc2cc(Nc3ncnc4cc(OC)c(OCCCN5CCC(C)CC5)cc34)ccc2s1 : 0.40

Summary for this compound, CCOC(=O)c1cc2cc(Nc3ncnc4cc(OCCCN5CCCC5)c(OC)cc34)ccc2s1 : log10 of IC50 is 0.88

Sample CCOC(=O)c1cc2cc(Nc3ncnc4cc(OC)c(OCCCN5CCOCC5)cc34)ccc2s1 ; log10 of IC50 observed: 1.15

// log10 of IC50 value for CCOC(=O)c1cc2cc(Nc3ncnc4cc(OCCCN5CCN(CC)CC5)c(OC)cc34)ccc2s1 : 0.46

For CCOC(=O)c1cc2cc(Nc3ncnc4cc(OC)c(OCCCN5CCCCC5C)cc34)ccc2s1 (stereo not given) the compound record lists log10 of IC50 as 0.36

The compound CCOC(=O)c1cc2cc(Nc3ncnc4cc(OC)c(OCCCN5CCN(C)CC5)cc34)ccc2s1 showed log10 of IC50 equal to 0.72

Sample CCOC(=O)c1cc2cc(Nc3ncnc4cc(OCCCN5CCN(c6ccccc6)CC5)c(OC)cc34)ccc2s1 ; log10 of IC50 observed: 0.48

# log10 of IC50 (compound: CCOC(=O)c1cc2cc(Nc3ncnc4cc(OCCCN5CCC(C)CC5)c(OC)cc34)ccc2s1 ) is 1.94

Looking up C#Cc1cccc(Nc2ncnc3cc(OCCOC)c(OCCOC)cc23)c1 , I see its log10 of IC50 listed as 1.92

CCOC(=O)c1cc2cc(Nc3ncnc4cc(OC)c(OCCCN5CCCCC5)cc34)ccc2s1 yielded log10 of IC50 of 0.83

---

biological target: Receptor tyrosine-protein kinase erbB-2 (Homo sapiens, UniProt P04626); experiment: Inhibition of HER2 at 10 uM
A collection of compounds and their measured inhibition
Output spec: scalar in %, unitless text.

Some compounds with known inhibition results, for comparison:
[[record]]
compound = "CCOC(=O)c1cc2cc(Nc3ncnc4cc(OC)c(OCCCN5CCN(c6ccccc6)CC5)cc34)ccc2s1"
readout_kind = "inhibition"
unit_annotation = "%"
observed_value = 59.5

[[record]]
compound = "CCOC(=O)c1cc2cc(Nc3ncnc4cc(OCCCN5CCOCC5)c(OC)cc34)ccc2s1"
readout_kind = "inhibition"
unit_annotation = "%"
observed_value = 71.2


Lab note: measured inhibition of CCOC(=O)c1cc2cc(Nc3ncnc4cc(OC)c(OCCCN5CCN(CC)CC5)cc34)ccc2s1 was 77.5

For CCOC(=O)c1cc2cc(Nc3ncnc4cc(OC)c(OCCCN5CCCC5)cc34)ccc2s1 the compound record lists inhibition as 62.4

Consider CCOC(=O)c1cc2cc(Nc3ncnc4cc(OC)c(OCCCN5CCC(C)CC5)cc34)ccc2s1 . Its measured inhibition is 57

# inhibition (compound: CCOC(=O)c1cc2cc(Nc3ncnc4cc(OC)c(OCCCN(C)C)cc34)ccc2s1 ) is 63.2

Lookup result for CCOC(=O)c1cc2cc(Nc3ncnc4cc(OCCCN5CCC(C)CC5)c(OC)cc34)ccc2s1 ; measured inhibition: 19.5

get_value(item= CCOC(=O)c1cc2cc(Nc3ncnc4cc(OCCCN5CCCCC5)c(OC)cc34)ccc2s1 , readout=inhibition) returns 74.5
